- Tested on: Escherichia coli
- Assay explanation: Antimicrobial activity against Escherichia coli J53 transformed with pHNDU1 carrying qnrB6 gene by agar dilution method
- Format: functional
Response field label: string, one of condition met (MIC strictly below 1 µg/mL) or condition not met.

Molecule	Class assignment
O=C(N[C@H](CO)[C@H](O)c1ccc([N+](=O)[O-])cc1)C(Cl)Cl [CHLORAMPHENICOL]	condition not met
Cc1cc(NS(=O)(=O)c2ccc(N)cc2)no1 [SULFAMETHOXAZOLE]	condition not met
CO/N=C(\C(=O)N[C@@H]1C(=O)N2C(C(=O)O)=C(CSC(=O)c3ccco3)CS[C@H]12)c1csc(N)n1 [CEFTIOFUR]	condition met
CC(C)(O/N=C(\C(=O)N[C@@H]1C(=O)N2C(C(=O)[O-])=C(C[n+]3ccccc3)CS[C@H]12)c1csc(N)n1)C(=O)O [CEFTAZIDIME]	condition met
CCn1cc(C(=O)O)c(=O)c2ccc(C)nc21 [NALIDIXIC ACID]	condition not met

----------
- System: Escherichia coli
- Assay explanation: Antimicrobial activity against Escherichia coli J53 transformed with pHNDU1 carrying qnrB6 gene by agar dilution method
- Assay type: functional
Property name: MIC (µg/mL)

Line notation	Property name	U	Readout relation	Number
COc1cc(Cc2cnc(N)nc2N)cc(OC)c1OC	MIC	µg/mL	=	0.5
CO/N=C(\C(=O)N[C@@H]1C(=O)N2C(C(=O)[O-])=C(C[n+]3cccc4c3CCCC4)CS[C@H]12)c1csc(N)n1	MIC	µg/mL	=	0.25
NCC[C@H](O)C(=O)N[C@@H]1C[C@H](N)[C@@H](O[C@H]2O[C@H](CN)[C@@H](O)[C@H](O)[C@H]2O)[C@H](O)[C@H]1O[C@H]1O[C@H](CO)[C@@H](O)[C@H](N)[C@H]1O	MIC	µg/mL	>	128
CC1(C)S[C@@H]2[C@H](NC(=O)[C@H](N)c3ccccc3)C(=O)N2[C@H]1C(=O)O	MIC	µg/mL	=	64
